# System: HL-60(TB) leukemia
# Assay method text: NCI-60 one-dose screen, 48 h
# Assay context: 10 µM unless noted
This is part of a sample that, as a whole, favours compounds with a hit. Of some 83,000 tested, about 20% had one in any assay. Activity calls are given as the source filed them. Rule for the calls: active = growth percent below 10; inactive = the rest.
Outcome field: choose from T (active), F (inactive)

Ask: Just curious, what result did O=C(Nc1ccncc1)C(=O)c1cn(S(=O)(=O)c2cccc3ccccc23)c2ccccc12 get here?
Reply: F

Ask: Kindly provide the recorded test outcome for the following compound: CC(C)CNCC(O)COc1ccc(C(C)(C)c2ccc(OCC(O)CNCC(C)C)cc2)cc1 (centres undefined)
Reply: F

Ask: Hey, what did the test say about CC(=O)O[C@]1(C(C)=O)CC[C@H]2[C@@H]3C=C(Cl)C4=CC(=O)CC[C@]4(C)[C@H]3CC[C@@]21C ?
Reply: F

---
Ask: What outcome does the record of this test show for CNc1ccc(N)cc1 ?
Reply: F

Ask: Hi, do you know how O=C1/C(=C\c2c[nH]c3ccccc23)c2ccccc2N1c1c(Cl)cccc1Cl came out in this test?
Reply: T

Ask: For this compound, state the assay outcome: COc1ccc(-c2nc(SCC(=O)Nc3ccc(C(=O)/C=C/c4ccc(Cl)cc4)cc3)[nH]c(=O)c2C#N)cc1
Reply: F

Ask: Give the logged outcome of this assay for the following compound: Cc1c(C(N)=O)sc2nc(C)n(/N=c3\scc(-c4ccccc4)n3Cc3ccccc3)c(=O)c12
Reply: T

Ask: Dear all, I need the recorded test outcome for COc1cc2cc(Oc3ccc(NC(=O)Nc4ccc(Cl)c(C(F)(F)F)c4)cc3)c(C)nc2cc1OC , thank you.
Reply: T

Ask: Status in this test for CC/C(=N\Nc1nc2ccccc2n1C)c1ccccn1 ?
Reply: T

* * *

Assign growth to each entry below.
# Test system: OVCAR-8 ovarian
# Assay method text: NCI-60 one-dose screen, 48 h (100 = growth as untreated, 0 = no growth, -100 = all killed)
# Assay context: 10 µM unless noted
Compounds without any hit were thinned out: in the full panel of roughly 83,000, 20% have a hit.
Give bare numbers, in %.

Known growth results, listed for orientation:
Query NC(=O)NC(=O)CI yields growth of 101

Notebook: Nc1cccc(CC(=O)Nc2ccc(S(=O)(=O)F)cc2)c1 , growth read as 91.2

Kindly review the next compound as well.
So for CNC(C)Cc1ccccc1 (stereo not drawn) (tested in a mixture with another compound) , the logged growth turned out to be 113

* * *

# Tested on: UACC-257 melanoma
# Assay method text: NCI-60 one-dose screen, 48 h (100 = growth as untreated, 0 = no growth, -100 = all killed)
# Assay context: 10 µM unless noted
About 83,000 compounds went through this panel and 20% of them were active in at least one assay; those are over-represented in the sample as a whole.
Entries are sorted into classes by growth as follows: bin 0 = under 50%, bin 1 = from 50% up to 90%, bin 2 = 90% and over

Study these solved cases before continuing.
Ask: Field: class (growth) — entry: Cn1cnnc1[S-].[Au+].c1ccc([PH+](c2ccccc2)c2ccccc2)cc1
Reply: bin 0

Ask: Lab note: sort Nc1cccc(CC(=O)Nc2ccc(S(=O)(=O)F)cc2)c1 into the matching growth band.
Reply: bin 2

Ask: Kindly state the category for this molecule: COc1ccc(C2SCC(=O)Nc3c2c(C)nn3-c2nc3ccc(C)cc3s2)cc1O (stereo not given)
Reply: bin 1

Ask: Sort ClCCN(CCCl)c1ccc(/C=C\c2ccnc3ccccc23)cc1 into one of the categories.
Reply: bin 0

Ask: Kindly identify the class of Cc1cc(C)nc(C)c1.[Cl][Hg][Cl] .
Reply: bin 2

Next:
Ask: Form: Item = CC[C@H](C)[C@H](NC(=O)Nc1ccccc1)C(=O)N(C)[C@H](C[C@@H](OC(C)=O)c1nc(C(=O)N[C@@H](Cc2ccccc2)C[C@H](C)C(=O)OC)cs1)C(C)C ; Class = ?
Reply: bin 1

Ask: Consider COc1ccc(C(=O)c2ccc([As]=O)cc2)cc1 (stereo not given) . To which growth class does it belong?
Reply: bin 0

Ask: Textbook exercise: identify the category of the molecule given here, CC1(C)N=C(N)N=C(N)N1c1ccc(CCCCc2ccc(S(=O)(=O)F)cc2)c(Cl)c1 , according to its measured value.
Reply: bin 0

* * *

# Test system: HL-60(TB) leukemia
# Assay method text: NCI-60 one-dose screen, 48 h (100 = growth as untreated, 0 = no growth, -100 = all killed)
# Assay context: 10 µM unless noted
This is part of a sample that, as a whole, favours compounds with a hit. Of some 83,000 tested, about 20% had one in any assay.
Give true (1) when the value for growth is at least 50%. Give false (0) when it is less.

Use these answered entries as a reference point.
Ask: Could you verify whether the entry Cc1cc2nc(NC(=O)CN3CCN(CCN4C(=O)c5cccc6cccc(c56)C4=O)CC3)sc2cc1C shows growth of no less than 50%?
Reply: true (1)

Ask: Check if growth >= 50% (inclusive). Item: N=C1C(c2nc3ccccc3s2)=C(O)CN1c1cc(Cl)cc(Cl)c1
Reply: false (0)

Ask: Could you tell me if the measured growth of O=C1/C(=C/c2ccc([N+](=O)[O-])s2)Oc2ccc(Cl)cc21 reaches 50% or more?
Reply: false (0)

Others:
Ask: Test whether the molecule O=C(Nc1ncc(Cc2ccccc2)s1)c1ccc2c(c1)OCCO2 records growth of 50% or higher.
Reply: false (0)

Ask: hey, is growth for this one >= 50%? Cc1ccc2oc(=O)cc(-c3sc(N4CCCCC4)nc3-c3ccccc3)c2c1
Reply: true (1)

Ask: Quick check, growth >= 50%? CC12CCC3C(CCC4CC(O)CCC43C)C1C/C(=C/O)C(=O)O2 (stereo not given)
Reply: true (1)

Ask: Answer whether growth of O=C(Nc1ncc(Cc2cccc(C(F)(F)F)c2)s1)c1ccc2c(c1)OCCO2 is greater than or equal to 50%.
Reply: false (0)

Ask: Dear colleague, could you confirm whether COc1ccc2c(O)c(/C=C3\N=Nc4ncccc43)oc2c1C[C@@H]1CCNC[C@H]1F has growth at or above 50%?
Reply: false (0)

Ask: Decide: is the reported value of growth for Nc1nc2c(c(-c3nc(N)nc4c3CCc3ccccc3-4)n1)CCc1ccccc1-2 equal to or greater than 50%?
Reply: true (1)

Ask: Quick check, growth >= 50%? Cc1ccc(C(=O)NN2C(=O)CSC2c2cccc([N+](=O)[O-])c2)cn1 (stereo not given)
Reply: true (1)

* * *

# System: CAKI-1 renal
# Assay method text: NCI-60 one-dose screen, 48 h (100 = growth as untreated, 0 = no growth, -100 = all killed)
# Assay context: 10 µM unless noted
About 83,000 compounds went through this panel and 20% of them were active in at least one assay; those are over-represented in the sample as a whole.
Please provide measured growth for the entries that follow.
Numbers only, in %.

Note to self: growth recorded for O=[N+]([O-])c1ccccc1N1CCNCC1 was 94.1

Value of measured growth for the entry CCCCNCCc1ccccn1 : 97

growth reading for ClCCN(CCCl)C(c1ccccc1)c1ccc(Cl)cc1 (configuration not stated) : 10.1

// recorded growth for CO[C@@H]1[C@H](OC(=O)NC(=O)CCl)CC[C@]2(CO2)[C@H]1[C@@]1(C)O[C@@H]1CC=C(C)C : 67.2

Item: O=CC(Br)C(Br)c1ccccc1 (configuration not stated) | growth: 92.9

Documented growth of CCC(CO)NC1CCCCC1 (configuration not stated) : 61.5

Record N#CC(C#N)=Cc1ccc2ccccc2c1 , field growth: 101

GET /value?item= O=C(CCl)NCNC(=O)CCl &field=growth returns 56.8

Provide each entry's growth from the list below.
1. O=C(CCc1ccco1)NC1CCN(CC2(c3ccc(Cl)cc3)CCC2)CC1
2. CNC(C)Cc1ccccc1 (configuration not stated) (tested in a mixture with another compound)
3. Cc1cc(NC(=O)NCCOc2ccc(N3C(N)=NC(N)=NC3(C)C)cc2Cl)ccc1S(=O)(=O)F

Reply:
5.62
102
95.1

Query CC(N)Cc1ccc(O)cc1 (configuration not stated) yields growth of 103

* * *

# Tested on: SK-OV-3 ovarian
# Assay method text: NCI-60 one-dose screen, 48 h (100 = growth as untreated, 0 = no growth, -100 = all killed)
# Assay context: 10 µM unless noted
About 83,000 compounds went through this panel and 20% of them were active in at least one assay; those are over-represented in the sample as a whole.
Values of growth strictly less than 80% map to T, and values of at least 80% map to F.

Ask: # check: growth < 80% for NC(Cc1ccc(O)cc1)C(=O)N/N=C/c1ccc(N(CCCl)CCCl)cc1 (stereo not given)
Reply: F

---
Ask: Determine whether this molecule shows growth lower than 80% (ties excluded): Cc1ccc(C(=O)C2CN(C)CCC2(O)c2ccc(C)cc2)cc1 (stereo not given)
Reply: F

Ask: Please determine if CC1(C)N=C(N)N=C(N)N1c1ccc(OCCCCOc2ccc(S(=O)(=O)F)cc2)c(Cl)c1 is below 80% in terms of growth.
Reply: T

Ask: Is it true that growth reported for N#C[Se]CCN1C(=O)C2C(C1=O)[C@H]1C=C[C@@H]2S1 (stereo not given in full) is less than 80%?
Reply: T

Ask: Hello, is growth of the following molecule strictly smaller than 80%? COc1ccc(C2=NN(c3ccccc3)C(c3sc(N(CCCl)CCCl)nc3Cl)C2)cc1 (stereo not given)
Reply: T

Ask: Quick check: growth of ClCCN(CCCl)C(c1ccccc1)c1ccc(Cl)cc1 (stereo not given) under 80%?
Reply: F

Ask: Given CC[C@H](C)[C@H](NC(=O)Nc1ccccc1)C(=O)N(C)[C@H](C[C@@H](OC(C)=O)c1nc(C(=O)N[C@@H](Cc2ccccc2)C[C@H](C)C(=O)OC)cs1)C(C)C , is recorded growth strictly lower than 80%?
Reply: T

Ask: Just wondering, is growth of [Cl][Hg][n]1cnc2c(Cl)c(Cl)c(Cl)cc21 below 80%?
Reply: F

Ask: Does the reported growth of COc1ccc(OC)c(/C=C(/C)[N+](=O)[O-])c1 stay below 80%?
Reply: F

Ask: Hello, is growth of the following molecule strictly smaller than 80%? CCC(C)/C=C(C)/C=C/C(=O)c1c(O)c(-c2ccc(O)cc2)c[nH]c1=O (stereo not given)
Reply: T
